# System: Rhizoctonia solani
# Assay Protocol: Mycelial inhibition test, Rhizoctonia solani
# Format: cell-based
# Condition: paper strips on potato dextrose agar, 25° C., 24 hours
Readout Type: Mycelia Inhibition, micrograms/cm for 99% control, R

[
  {
    "Smiles": "O=S(=O)(C(Cl)=C(Cl)Cl)N(SC(Cl)(Cl)Cl)C1CCCCC1",
    "Target Entity": "Rhizoctonia solani",
    "Value Measured": "1.1 micrograms/cm"
  },
  {
    "Smiles": "CNS(=O)(=O)C(Cl)=C(Cl)Cl",
    "Target Entity": "Rhizoctonia solani",
    "Value Measured": "> 1.7 micrograms/cm"
  },
  {
    "Smiles": "O=S(=O)(Nc1ccccc1)C(Cl)=C(Cl)Cl",
    "Target Entity": "Rhizoctonia solani",
    "Value Measured": "> 1.7 micrograms/cm"
  },
  {
    "Smiles": "CN(SC(Cl)(Cl)Cl)S(=O)(=O)C(Cl)=C(Cl)Cl",
    "Target Entity": "Rhizoctonia solani",
    "Value Measured": "0.18 micrograms/cm"
  },
  {
    "Smiles": "O=S(=O)(NC1CCCCC1)C(Cl)=C(Cl)Cl",
    "Target Entity": "Rhizoctonia solani",
    "Value Measured": "> 1.7 micrograms/cm"
  },
  {
    "Smiles": "Cc1cccc(C)c1NS(=O)(=O)C(Cl)=C(Cl)Cl",
    "Target Entity": "Rhizoctonia solani",
    "Value Measured": "> 1.7 micrograms/cm"
  }
]
